Target: T1, soluble TREM2 protein (human, UniProt Q9NZC2 19-157)
T1 construct: also called TREM2 in cell culture supernatant (Sup)
T1 sequence: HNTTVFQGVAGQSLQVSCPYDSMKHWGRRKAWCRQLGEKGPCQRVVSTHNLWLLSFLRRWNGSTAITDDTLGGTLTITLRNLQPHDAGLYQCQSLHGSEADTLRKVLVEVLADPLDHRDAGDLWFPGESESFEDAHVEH
Test: sup ELISA, hTREM2 vs WT 293HEK supernatant
Entries and their sup ELISA positive/negative (293HEK) values follow.
The figure you give is taken to be in ratio; do not add the unit.

Worked examples, 5 binders total:
{"columns": ["Binder", "Units Symbol", "sup ELISA positive/negative (293HEK)"],
 "data": [
  ["54H2C1 (antibody, V domains shown, Biotin conjugated in sup ELISA, cell-based ELISA and flow cytometry) VH: QVQLQQPGAEPLTPGASVKMSCEASGYTFTNFWITWVKLRPGQGLEWIGDIYPGSGNTNYNEKFKSRATLTVDTSSTTAYMQLSSLTSEDSAVYYCAREAYYTNPGFAYWGHGTLVTVSA VL: DVLMTQSPLSLPVNLGDQASISCKSSQNIVHSNGNTYLEWYLQRPGQSPKLLIYKVSNRFSGVPDRFSGSGSGTDFTLKISRVEAEDLGLYYCFQGSHVPYTFGGGTKLEIK", "ratio", 25.1],
  ["80E3C7 (antibody, V domains shown, Biotin conjugated in sup ELISA, cell-based ELISA and flow cytometry; also called anti-TREM2 antibody (E3C7); TREM2 Ab E3C7) VH: QVQLQQPGAEPLKPGASVKMSCEASGYTFTNFWITWMKLRPGQGLEWIGDIYPGTGNTNYNEKFKSRATLTVDTSSTTAYMQLSSLTSEDSAVYYCAREAYYTNPGFAYWGHGTLVTVSA VL: DVLMTQSPLSLPVNLGDQASISCKSSQNIVHSNGNTYLEWYLQRPGQSPKLLIYKVSNRFSGVPDRFSGSGSGTDFTLKISRVEAEDLGVYYCFQGSHVPYTFGGGTKLEIK", "ratio", 24.9],
  ["60H4A3 (antibody, V domains shown, Biotin conjugated in sup ELISA, cell-based ELISA and flow cytometry) VH: EVQLQESGPELVKPGASVKMSCKASGYTFTDYNMHWVKQSHGKSLEWIGYIYPNNGGTGYNQKFKGKATLTVNKSSSTAYMELRSLTSEDSAVYYCARSGRGFAYWGQGTLVTVSA VL: DIVMTQSPASLSVTPGDRVSLSCRASQSISDYLHWYQQKSHESPRLLIKYASQSISGIPSRFSGSGSGSDFTLSINSVEPEDVGVYYCQNGHSFPYTFGGGTKLEIK", "ratio", 11],
  ["83E10B12 (antibody, V domains shown, Biotin conjugated in sup ELISA, cell-based ELISA and flow cytometry) VH: QVQLQESGPELVKPGASVKISCKASGYIFSYSWMNWVKQRPGKGLEWIGRIYPGDGDADYNGKFKGKATLTADKSSNTAYMQLTSLTSEDSAVYFCARLHIYDGYYVSVYWGQGTLVTVSA VL: DIQMTQTTSCLSASLGDRVTISCRASQDINNYLSWYQQKPDGTVKLLIYYTSKLHSGVPSRFSGSGSGTDYSLTIGNLEQEDVATYFCQQGDTLPWTFGGGTRLEIK", "ratio", 27.9],
  ["60H4G2 (antibody, V domains shown, Biotin conjugated in sup ELISA, cell-based ELISA and flow cytometry) VH: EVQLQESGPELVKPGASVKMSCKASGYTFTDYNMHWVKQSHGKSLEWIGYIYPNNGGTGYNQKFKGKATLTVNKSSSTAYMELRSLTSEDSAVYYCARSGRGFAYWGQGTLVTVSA VL: DIVMTQSTSSLTVTAGEKVTMSCKSSQSLLNSGNQKNYLTWYQQKPGQPPKLLIYWASSRESGVPDRFTGRGSGTDFTLTISSVQAEDLAVYYCQNDYSYPFTFGSGTKLEIK", "ratio", 10]
]}

Shift focus to the following entry.
Q: Please give the measured sup ELISA positive/negative (293HEK) for this binder: 61B11C9 (antibody, V domains shown, Biotin conjugated in sup ELISA, cell-based ELISA and flow cytometry) VH: QLQESGPEQVKPGASVKMSCRTSGYTFTAYNMHWVKQRLGKSLEWIGYIRPTNGDTRYNRRFRDKATLTVDKSSSTTYMELRSLTSEDSAVYYCTRSTTVASFDYWGQGTTLTVSS VL: DIVMTQTTSSLTVSVGQKITLNCKSSQSLLYTNNQKNFLAWYQQKPGQSPKLLIYWASTRDSGVPDRFTGSGSGTDFTLTITSVMAEDLAVYFCQQYYDFPPTFGGGTKLEIK
Ans: 3.05
